- TEST_DESCRIPTION: Solubility testing of peptides at different pH
- Format: physicochemical
- CONDITIONS: 50 mM HCl buffer; 50 mM HCl pH 1.2; target concentration 1 mg/ml; 2 hours agitation; read-out: Solubility Buffer pH 1.2
Positions of bridges follow the written chain, without caps; N, C: chain ends. Non-standard residues stand in square brackets, D forms with d. Residues, ends and D or L forms follow the SMILES beside them. *: point of attachment. Trp(7-Me) = Cc1cccc2c(C[C@H](N)C(=O)O)c[nH]c12; 2Nal = N[C@@H](Cc1ccc2ccccc2c1)C(=O)O; 3Pal = N[C@@H](Cc1cccnc1)C(=O)O; Thp = NC1(C(=O)O)CCOCC1; Me2NCH2CH2 = CN(C)CC*; Ava = NCCCCC(=O)O; Sar = CNCC(=O)O
QUANTITY_MEASURED: solubility at 2 h

| MOLECULE | VALUE_OBSERVED |
| --- | --- |
| Cc1cccc2c(C[C@@H]3NC(=O)[C@H]([C@@H](C)O)NC(=O)[C@H](CC(N)=O)NC(=O)[C@@H]4CSSC[C@H](NC(=O)[C@H](CC(C)C)NC3=O)C(=O)N[C@@H](Cc3ccc(OCCN(C)C)cc3)C(=O)N[C@@H](Cc3ccc5ccccc5c3)C(=O)NC3(CCOCC3)C(=O)N[C@H](C(=O)N[C@@H](CC(N)=O)C(=O)N[C@@H](Cc3cccnc3)C(=O)N(C)CC(N)=O)CCC(=O)NCCCCC(=O)N4)c[nH]c12 [compound 24] ([Ava]CNT[Trp(7-Me)]LCY(Me2NCH2CH2)[2Nal][Thp]EN[3Pal][Sar]-NH2; disulfide 2-7; lactam N-11) | ≥ 1020 µg/mL |

Every entry's value here was drawn from patent US20260258084A1.
